Each record here notes measured TGI.
- System: SN12C renal
- assay explanation: NCI tumour cell line growth inhibition, 48 h

Consider the reported TGI for these compounds:
- compound: "NC1N=Nc2ccccc21 (stereo not drawn)"
  TGI: "> 100 µM"
- compound: "Cc1cc(Cl)nc2ccc(Cc3ccc4nc(Cl)cc(C)c4c3)cc12"
  TGI: "> 100 µM"
- compound: "O=c1[nH]c2ccccc2c(O)c1Cc1ccccc1"
  TGI: "> 100 µM"
- compound: "COc1ccc(-n2c(SC(CN3CCOCC3)CN3CCCC3=O)nc3ccccc3c2=O)cc1 (stereo not drawn)"
  TGI: "> 100 µM"
- compound: "Cc1ccccc1C1=C(c2cn(C)c3ccccc23)C(=O)NC1=O"
  TGI: "> 25 µM"

For the compound COc1ccc2c(c1)N(Cc1ccc(Cl)cc1)CCC2N1CCCC1=O (stereo not drawn) , give its measured TGI value.
89.1 µM

For the compound COc1cc2c3c(n(CCCN4CCNCC4)c(=O)c2cc1OC)-c1cc2c(cc1C3=O)OCO2 , give its measured TGI value.
0.491 µM

For the compound COc1cc(OC)cc(Oc2cnc3cc(N)cc(N)c3n2)c1 , give its measured TGI value.
29.3 µM
